These measurements were taken from ChEMBL document CHEMBL4665669.

assay.target: Carbonic anhydrase 9 (Homo sapiens)
method.summary: Inhibition of recombinant human CA9 preincubated for 15 mins by phenol red dye based stopped flow CO2 hydration assay
result.type: IC50 (nM)
// units = nM; emit number, no label

Problem: Please look up its IC50: Cc1ccc(N(CC(C)F)S(=O)(=O)c2ccc([N+](=O)[O-])cc2)cc1 (stereo unspecified)
Solution: 4.2

* * *

method.summary: Inhibition of HIF in human LN229 cells transfected with HRE-luc/LacZ by dual luciferase reporter gene assay
Format: cell-based
condition.info: LN-229
result.type: pIC50
Just so you know, pIC50 here is -log10 of the concentration in molar units; reply with that number alone.

Problem: Please look up its pIC50: COc1ccc(S(=O)(=O)N(Cc2ccc3c(c2)OC(C)(C)C=C3)c2ccccc2)cc1OC
Solution: 6.23
